Test system: Escherichia coli TOP10
Assay: shrunken log2 fold change of peptide-encoding DNA abundance (4.5 h post-induction vs induction); higher = less antimicrobial activity (less host growth inhibition)
Settings: time post-induction: 4.5 h; library: site-saturation at positions 5, 18, 19, 20
Use Y when the recorded shrunken log2 fold change is no lower than -0.01; use N when it is lower.

As a guide, the following entries are already answered.
RRIRIRPPRLPRPRPRPMESPRP | Y
RRIRIRPPRLPRPRPRPSMPPRP | N
RRIRTRPPRLPRPRPRPLYGPRP | Y
RRIRMRPPRLPRPRPRPAVSPRP | Y
RRIRPRPPRLPRPRPRPLKDPRP | N

### Prompt Form field: shrunken log2 fold change at least -0.01? Entry: RRIRPRPPRLPRPRPRPVGHPRP
### Response Y

====

Tested on: Escherichia coli TOP10
Test: shrunken log2 fold change of peptide-encoding DNA abundance (4.5 h post-induction vs induction); higher = less antimicrobial activity (less host growth inhibition)
Conditions: time post-induction: 4.5 h; library: site-saturation at positions 5, 18, 19, 20
measured.quantity: shrunken log2 fold change
Answer using only a numeral; do not append any unit.

Consider the following illustrative entries.
RRIRYRPPRLPRPRPRPRNMPRP | -0.56
RRIRRRPPRLPRPRPRPWLVPRP | -0.0986
RRIRPRPPRLPRPRPRPIWHPRP | -0.0776

### Prompt For RRIRSRPPRLPRPRPRPYMTPRP , write its shrunken log2 fold change.
### Response -0.586

====

Test system: Escherichia coli TOP10;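 also: peptides expressed intracellularly from a pBAD plasmid library in pooled LB shake-flask culture, induced with 0.3% L-arabinose, DNA abundance read by NGS, three biological replicates, DESeq2 with apeglm shrinkage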
Assay: shrunken log2 fold change of peptide-encoding DNA abundance (4.5 h post-induction vs induction); higher = less antimicrobial activity (less host growth inhibition)
Settings: time post-induction: 4.5 h; library: site-saturation at positions 5, 18, 19, 20
measured.quantity: shrunken log2 fold change
Answer using only a numeral; do not append any unit.

Consider the following illustrative entries.
RRIRGRPPRLPRPRPRPDFHPRP | -0.0976
RRIRQRPPRLPRPRPRPCTKPRP | 0.00259
RRIRVRPPRLPRPRPRPHFTPRP | -0.253
RRIRKRPPRLPRPRPRPSRKPRP | 0.0758
RRIRVRPPRLPRPRPRPLRPPRP | 0.97

### Prompt For RRIRWRPPRLPRPRPRPQIVPRP , write its shrunken log2 fold change.
### Response 0.0235

### Prompt For RRIRYRPPRLPRPRPRPQFEPRP , write its shrunken log2 fold change.
### Response -0.106

### Prompt For RRIRFRPPRLPRPRPRPGDLPRP , write its shrunken log2 fold change.
### Response -0.23

### Prompt For RRIRLRPPRLPRPRPRPVIAPRP , write its shrunken log2 fold change.
### Response -0.176

### Prompt For RRIRGRPPRLPRPRPRPEHYPRP , write its shrunken log2 fold change.
### Response -0.0809

### Prompt For RRIRQRPPRLPRPRPRPFIDPRP , write its shrunken log2 fold change.
### Response -0.0223

### Prompt For RRIRMRPPRLPRPRPRPVFSPRP , write its shrunken log2 fold change.
### Response 0.314

### Prompt For RRIRRRPPRLPRPRPRPKCVPRP , write its shrunken log2 fold change.
### Response -0.29

### Prompt For RRIRCRPPRLPRPRPRPYDVPRP , write its shrunken log2 fold change.
### Response -0.0223

### Prompt For RRIRHRPPRLPRPRPRPGLMPRP , write its shrunken log2 fold change.
### Response -0.162
